Documented Minimal Inhibitory Concentration (MIC) RESISTANT across a set of compounds
Tested on: Enterococcus faecium and faecalis (RESISTANT)
Assay type: cell-based
Conditions: geometric mean of 4-6 isolates
// return just the number, without any unit appended

Report Minimal Inhibitory Concentration (MIC) RESISTANT for `C[C@@H]1O[C@@H](O[C@@H]2c3ccc(c(Cl)c3)Oc3cc4cc(c3O[C@@H]3O[C@H](CO)[C@@H](O)[C@H](O)[C@H]3O[C@H]3C[C@](C)(NCc5ccc(-c6ccc(Cl)cc6)cc5)[C@@H](O)[C@H](C)O3)Oc3ccc(cc3Cl)[C@@H](O)[C@@H](NCc3ccc(-c5cc(C(F)(F)F)cc(C(F)(F)F)c5)cc3)C(=O)N[C@@H](CC(N)=O)C(=O)N[C@H]4C(=O)N[C@H]3C(=O)N[C@@H]2C(=O)N[C@H](C(=O)O)c2cc(O)cc(O)c2-c2cc3ccc2O)C[C@](C)(N)[C@H]1O` please. 9.5

Continuing:
// Minimal Inhibitory Concentration (MIC) RESISTANT lookup, key: `C[C@@H]1O[C@@H](O[C@H]2[C@H](Oc3c4cc5cc3Oc3ccc(cc3Cl)[C@@H](O[C@H]3C[C@](C)(N)[C@@H](O)[C@H](C)O3)[C@@H]3NC(=O)[C@H](NC(=O)[C@@H]5NC(=O)[C@H](CC(N)=O)NC(=O)[C@H](NCc5ccc(-c6cc(C(F)(F)F)cc(C(F)(F)F)c6)cc5)[C@H](O)c5ccc(c(Cl)c5)O4)c4ccc(O)c(c4)-c4c(O)cc(O)cc4[C@@H](C(=O)O)NC3=O)O[C@H](CO)[C@@H](O)[C@@H]2O)C[C@](C)(N)[C@H]1O` 9.5

Which Minimal Inhibitory Concentration (MIC) RESISTANT value belongs to `C[C@@H]1O[C@@H](O[C@@H]2c3ccc(c(Cl)c3)Oc3cc4cc(c3O[C@@H]3O[C@H](CO)[C@@H](O)[C@H](O)[C@H]3O[C@H]3C[C@](C)(NCc5ccc(-c6ccccc6)cc5)[C@@H](O)[C@H](C)O3)Oc3ccc(cc3Cl)[C@@H](O)[C@@H](NCc3ccc(O)cc3)C(=O)N[C@@H](CC(N)=O)C(=O)N[C@H]4C(=O)N[C@H]3C(=O)N[C@@H]2C(=O)N[C@H](C(=O)O)c2cc(O)cc(O)c2-c2cc3ccc2O)C[C@](C)(N)[C@H]1O` ? 27

###

Test system: Staphylococcus aureus 446
Assay: MIC, standard broth micro-dilution assay, SA 446
Type: cell-based
Design: unit not given here
Mark Condition met for reported Minimal Inhibitory Concentration (MIC) SA 446 of 8 or greater; mark Condition not met for anything smaller.

Hi, just wondering whether `C[C@@H]1O[C@@H](O[C@H]2[C@H](Oc3c4cc5cc3Oc3ccc(cc3Cl)[C@@H](O[C@H]3C[C@](C)(N)[C@@H](O)[C@H](C)O3)[C@@H]3NC(=O)[C@H](NC(=O)[C@@H]5NC(=O)[C@H](CC(N)=O)NC(=O)[C@H](NCc5ccc(OCCCc6ccccc6)cc5)[C@H](O)c5ccc(c(Cl)c5)O4)c4ccc(O)c(c4)-c4c(O)cc(O)cc4[C@@H](C(=O)O)NC3=O)O[C@H](CO)[C@@H](O)[C@@H]2O)C[C@](C)(N)[C@H]1O` shows Minimal Inhibitory Concentration (MIC) SA 446 of 8 or higher. Condition not met

Ref: patent US5977063A
